Experiment: yeast display, Sf9 membrane polyspecificity reagent, FACS + sequencing; frameworks hold sequencing errors
outcomeMeasure: polyreactivity (PSR sort gate)

Look up polyreactivity (PSR sort gate) for this sequence: "QVQLVESGGGLVQAGGSLRLSCAASGRTFGKYAMGWYSQAPGKERELVAAISSGGTTYYADSVKGRFTISRDNAKNTVYLQMNSVIPEDTAVYYCAADPRYPYNYWGQGTQVTVSS" low polyreactivity

Look up polyreactivity (PSR sort gate) for this sequence: "QVQLEESGGGLVQAGGSLRLSCAASGSTFGPNTMGRYRQAPGKERELVAAISRAGRTYYADSVKGRFTISRDNAKNTVYLQINSLKPEDTAVYYCNAGRSYHWRAGREYDYWGQGTQVTVSS" low polyreactivity

----------
Assay: yeast display, Sf9 membrane polyspecificity reagent, FACS + sequencing; frameworks hold sequencing errors
outcomeMeasure: polyreactivity (PSR sort gate)

Check out these entries, answers already filled in.
Look up polyreactivity (PSR sort gate) for this sequence: "QVQLVESGGGLVQAGRSLRLSCAASGLTFVNYTMGCYRQAPGKEREFVAAITSSGGSSTYYADSVKGRFTHSRDNAKNTVYLQMNSLYPEDTAVYYCAAGFTLYVDIVILTVNTVDYWGQGTQVTVSS" low polyreactivity

Look up polyreactivity (PSR sort gate) for this sequence: "QVHLVESGGGLVQAGGSLRLSCAASGFIFVRNARGWYRQAPGKERELVARISRSGGSTYYADSVKGRFTISRDNAKNTVYLQMNSLKQEDTAVYYCAAVLQAYPRLDYWGQGTQVTVSS" high polyreactivity

Look up polyreactivity (PSR sort gate) for this sequence: "QVQLVESGGGLVQAGGSLRLSCAASGITFYDNVMGWYRQAPGKERELVAAITDSGGSTYYADSVKGRFTISRDNAKNTVYLQMNSLKPEDTAVYYCNADVNAHWWWYIEEYWGQGTQVTVSS" low polyreactivity

Look up polyreactivity (PSR sort gate) for this sequence: "QVQLVESGGGLVQAGGSLRLSCAASGRTFYWNTMGWYRQAPGKERELVAAINYSGGSTYYADSVKGRFTISRDNAKNTVYLQMNSLKPEDTAVYYCAAYFHGYKSQHRARSEYNYWGQGTQVTVSS" high polyreactivity

Look up polyreactivity (PSR sort gate) for this sequence: "QVQLGDSGGGLVQAGGSLRLSCAPSGSIFQRYAMGWYRLAPGKERELVAAISYNGGSTYYADSVKGRFTISRDNAKNTVYLQMNSLKPEDTAVYYCAARGYRKTRFDYWGQGTKVTVSS" high polyreactivity

Look up polyreactivity (PSR sort gate) for this sequence: "QVQLVESGGGLVQAGGSLRLSCAPSGSIFDVNAMGWYRQSPGKESELVAAISDSGGSTYYADSVKGRFTISRDNAKNTVYLQMNSLKPEDTAVYYCNADWSWYNYYEFDYWGQGTQVTVSS" low polyreactivity

Look up polyreactivity (PSR sort gate) for this sequence: "QVQLVESGGGLVQAGGSLRLSCAASGSIFTGNAMGWYRQAPGKERELVAAITRTGSTNYADSVKGRFTISRDNAKNTVYLQMNSLKPEDTAVYYCATDRTFTISNYDYWGQGTQVTVSS" low polyreactivity

Look up polyreactivity (PSR sort gate) for this sequence: "QVQLVESGGGLVQAGGSLRLSCAASGSNYYVYPMGWYRQAPGKERELVATISTGGSTYYADSVKGRFTISRDNAKNTVYLQMNSLKPEDTAVYYCNAQITPRYWGGYDSWGQGTQVTVSS" low polyreactivity

Look up polyreactivity (PSR sort gate) for this sequence: "QFQLVESVGGLVQAGGSLRLTCAASGRIFLNYDMGWYRQEPGKDRELVAAITTGGSTYADSVKGRFTISRDNAKNTVYLQMNSLKAEDTAVYYCANRDRNKRDNWGQGTQVTGSS" low polyreactivity

Look up polyreactivity (PSR sort gate) for this sequence: "QVQLVESGGGLVQAGGSLRLALLTPDLPSTINDMGWYRQAPGKERELVAAITRGGSTNYADSVKGRFTISRDNAKNTVYLQMNSLKPEDTAVYYCAAPSAGWRDGGDYWGHGTQVTVSS" low polyreactivity

Here's the next entry for you.
Look up polyreactivity (PSR sort gate) for this sequence: "QVQLVESGGGLVQAGGSLRLSCAASGITFWKYAMGWYRQAPGKERELVAAISGRGGSTYYADSVKGRFTISRDNAKNTVYLQMNSLKPEDTAVYYCAVGYRGWDGYWGQGTQVTVSS" high polyreactivity
